- system_tested: ATP-sensitive inward rectifier potassium channel 1 (Homo sapiens) (UniProt P48048)
- Sequence (P48048 whole entry, looked up): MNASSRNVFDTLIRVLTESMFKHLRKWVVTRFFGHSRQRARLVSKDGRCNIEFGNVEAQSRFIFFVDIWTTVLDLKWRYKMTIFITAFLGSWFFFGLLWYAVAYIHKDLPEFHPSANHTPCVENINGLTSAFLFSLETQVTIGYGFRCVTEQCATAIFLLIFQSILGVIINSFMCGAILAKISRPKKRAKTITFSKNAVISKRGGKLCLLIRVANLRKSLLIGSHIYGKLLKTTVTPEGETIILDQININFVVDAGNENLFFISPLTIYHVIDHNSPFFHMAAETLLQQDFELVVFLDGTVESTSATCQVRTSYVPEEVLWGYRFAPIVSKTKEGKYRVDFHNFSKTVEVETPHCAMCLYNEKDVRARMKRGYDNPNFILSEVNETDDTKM
- method_notes: ROMK potassium channel modulators, primary screen, cell-based, thallium flux, MLSMR library (AID 1918);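 further: B-score of the F/F0 ratio slope over 7 to 12 s after thallium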
- cond: Tet-inducible ROMK, thallium flux fluorescence; at 10 µM; actives lie on both sides
About 2,500 (1.9%) of roughly 130,000 compounds were called active. This excerpt belongs to a sample that is enriched for actives.
We'd kindly ask you to apply these B-score classes: one (below -0.02), two (-0.02 to below 0.1), three (0.1 or more)

Given `CN(C)C(=O)c1cccn(Cc2cccc(C(F)(F)F)c2)c1=O` , name the class its B-score places it in. three

Could you place `O=C(O)c1ccccc1C(=O)Nc1ccccc1[N+](=O)[O-]` in its proper category? Many thanks. one

Hi there! Could you help me figure out the category for Cc1ccc(C2C3=C(Nc4[nH]n(-c5ccccc5)c(=O)c42)c2ccccc2C3=O)cc1 (stereo not given) please? one

# bin label for `O=C(NC(=S)Nc1ccc(S(=O)(=O)N2CCOCC2)cc1)c1ccccc1[N+](=O)[O-]` one

Lab log: `O=C(N/N=C/c1ccccn1)c1ccc(S(=O)(=O)N2CCCCCC2)cc1` — assign B-score category three

Returns: class label. Input: `CN(CC(=O)Nc1ccc(N2CCOCC2)cc1)CC(=O)Nc1ccccc1[N+](=O)[O-]` two

Exercise: read the entry c1ccc(C2c3[nH]c4ccccc4c3CCN2Cc2cccn2-c2cccnc2)nc1 (stereo not given) and state which class it falls under. two

Looking at `CCOC(=O)c1ccc(-c2ccc(C(=O)Nc3cccnc3)o2)cc1` , which class would you pick? three

State the band of COC(=O)C1=C(C)NC2=C(C(=O)c3ccccc32)C1c1ccc(-c2ccc(C(=O)O)cc2)o1 (stereo not given) three
